molecular target: MARK1 (human); test: radiometric filter-binding kinase assay; settings: compound 1.0 µM
Below, each of the compounds is paired with its reported residual activity value.

compound: COc1ccc(N(C(=O)Nc2c(C)cccc2C)c2cc(Nc3ccc(N4CCN(C)CC4)cc3)ncn2)c(OC)c1
valueUnits: %
residual activity: 53
--
compound: NC1(c2ccc(-c3nc4ccn5c(=O)[nH]nc5c4cc3-c3ccccc3)cc2)CCC1
valueUnits: %
residual activity: 88
--
compound: COc1cc(O)c2c(c1)/C=C/C[C@H](O)[C@H](O)C(=O)/C=C\C[C@H](C)OC2=O
valueUnits: %
residual activity: 99
--
compound: Oc1ccc2ccccc2c1SSc1c(O)ccc2ccccc12
valueUnits: %
residual activity: 65
--
compound: NC(=O)c1c(NC(=O)C2CC2)sc2c1CCCC2
valueUnits: %
residual activity: 93
--
compound: COc1cc(C(=O)N2CCOCC2)c(F)cc1Nc1ncc(C(F)(F)F)c(NC2CC2)n1
valueUnits: %
residual activity: 88
--
compound: O=C(NCCCNc1nc(Nc2cccc(CN3CCOCC3)c2)ncc1C1CC1)C1CCC1
valueUnits: %
residual activity: 9
--
compound: Cc1ccc(Sc2cnc(Nc3cccc(Br)n3)s2)cc1C(=O)N1CCN(C(=O)CN)CC1
valueUnits: %
residual activity: 78
--
compound: CNC(=O)C1[C@H]2O[C@@](C)([C@@H]1N)n1c3ccccc3c3c4c(c5c6ccccc6n2c5c31)C(=O)NC4 (some centres undefined)
valueUnits: %
residual activity: 5

###

Below, each of the compounds is paired with its reported residual activity value.
target: MARK3 (human) (UniProt P27448); experiment: radiometric filter-binding kinase assay; details: compound 0.1 µM
Sequence (P27448 whole entry, looked up): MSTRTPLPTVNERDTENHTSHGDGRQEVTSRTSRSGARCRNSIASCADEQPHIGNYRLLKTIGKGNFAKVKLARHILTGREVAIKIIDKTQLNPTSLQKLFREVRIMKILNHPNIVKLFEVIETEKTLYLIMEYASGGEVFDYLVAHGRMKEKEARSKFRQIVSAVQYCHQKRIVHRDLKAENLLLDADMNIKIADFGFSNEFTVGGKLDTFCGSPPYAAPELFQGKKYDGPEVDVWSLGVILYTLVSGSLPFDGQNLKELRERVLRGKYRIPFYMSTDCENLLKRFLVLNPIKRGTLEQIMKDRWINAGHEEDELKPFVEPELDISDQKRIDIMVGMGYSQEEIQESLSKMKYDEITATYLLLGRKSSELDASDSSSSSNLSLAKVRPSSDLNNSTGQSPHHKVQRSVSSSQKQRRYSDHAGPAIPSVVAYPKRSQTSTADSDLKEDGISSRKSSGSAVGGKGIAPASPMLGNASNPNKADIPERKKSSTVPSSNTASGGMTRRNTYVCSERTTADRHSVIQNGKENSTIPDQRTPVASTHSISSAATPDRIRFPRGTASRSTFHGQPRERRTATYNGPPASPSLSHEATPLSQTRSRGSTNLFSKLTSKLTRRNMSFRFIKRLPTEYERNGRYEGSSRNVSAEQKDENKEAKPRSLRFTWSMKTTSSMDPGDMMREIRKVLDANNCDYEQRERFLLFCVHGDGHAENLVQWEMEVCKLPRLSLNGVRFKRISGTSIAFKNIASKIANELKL
propertyName: residual activity (%)

compound: CCc1cncnc1N1CCN(Cc2nc3cc(C(F)(F)F)ccc3[nH]2)CC1
result: 94
--
compound: O=C(Nc1ccccc1-c1cn2c(CN3CCNCC3)csc2n1)c1cnc2ccccc2n1
result: 100
--
compound: CN(C)C/C=C/C(=O)Nc1cccc(C(=O)Nc2ccc(Nc3nccc(-c4cccnc4)n3)cc2)c1
result: 101
--
compound: Cn1c(=O)c2c(ncn2C)n(C)c1=O
result: 79
--
compound: NC(=O)c1cc2c(-c3cccc(-c4ccccc4)c3)cnc(N)c2s1
result: 104
--
compound: COc1cc(O)c2c(c1)/C=C/C[C@H](O)[C@H](O)C(=O)/C=C\C[C@H](C)OC2=O
result: 116
--
compound: CC1=C(CO)C(=O)O[C@@H]([C@@H](C)[C@H]2CC[C@H]3[C@@H]4C[C@H]5O[C@]56[C@@H](O)C=CC(=O)[C@]6(C)C4CC[C@]23C)C1 (some centres undefined)
result: 99
--
compound: COc1ccc(N(C(=O)Nc2c(C)cccc2C)c2cc(Nc3ccc(N4CCN(C)CC4)cc3)ncn2)c(OC)c1
result: 73
--
compound: NC(=O)Nc1ccc2c(c1)/C(=C/c1cc(-c3cccnc3)c[nH]1)C(=O)N2
result: 16

###

biological target: EEF2K (human) (UniProt O00418); test: radiometric filter-binding kinase assay; settings: compound 1.0 µM
Sequence (O00418 whole entry, looked up): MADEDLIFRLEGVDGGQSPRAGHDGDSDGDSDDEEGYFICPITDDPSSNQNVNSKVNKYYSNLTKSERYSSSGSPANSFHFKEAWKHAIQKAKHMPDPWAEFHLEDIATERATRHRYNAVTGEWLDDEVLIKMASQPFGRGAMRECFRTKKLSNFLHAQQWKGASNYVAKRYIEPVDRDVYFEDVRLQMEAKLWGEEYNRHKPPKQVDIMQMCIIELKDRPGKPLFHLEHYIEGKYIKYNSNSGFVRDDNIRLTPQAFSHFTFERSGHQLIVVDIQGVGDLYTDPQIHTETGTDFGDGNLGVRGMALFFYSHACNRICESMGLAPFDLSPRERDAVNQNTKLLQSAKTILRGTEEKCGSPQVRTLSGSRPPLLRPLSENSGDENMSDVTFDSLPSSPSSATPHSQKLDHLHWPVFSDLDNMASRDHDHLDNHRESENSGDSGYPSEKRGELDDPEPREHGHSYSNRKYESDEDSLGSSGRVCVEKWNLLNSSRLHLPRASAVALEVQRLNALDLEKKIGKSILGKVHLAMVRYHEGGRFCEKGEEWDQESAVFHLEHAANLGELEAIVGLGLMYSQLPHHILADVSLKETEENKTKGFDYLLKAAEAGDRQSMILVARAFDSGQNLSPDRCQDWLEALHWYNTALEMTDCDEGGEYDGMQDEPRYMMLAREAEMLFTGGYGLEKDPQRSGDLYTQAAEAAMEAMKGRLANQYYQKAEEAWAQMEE
Below, each of the molecules is paired with its reported residual activity value.

molecule: Cc1cc(SCc2sc(-c3ccc(C(F)(F)F)cc3)nc2C)ccc1OCC(=O)O
testTarget: EEF2K (human) (UniProt O00418)
residual activity (%): 80

molecule: FC(F)(F)c1ccc(-c2ccc(Oc3cncc4sc(-c5nn[nH]n5)cc34)cc2)cc1
testTarget: EEF2K (human) (UniProt O00418)
residual activity (%): 106

molecule: COc1ccc2c(c1)c1c3c(c4c5ccccc5n(C)c4c1n2CC(O)CN(C)C)C(=O)NC3=O (stereo not given)
testTarget: EEF2K (human) (UniProt O00418)
residual activity (%): 106

molecule: CCc1cncnc1N1CCN(Cc2nc3cc(C(F)(F)F)ccc3[nH]2)CC1
testTarget: EEF2K (human) (UniProt O00418)
residual activity (%): 73

molecule: Cc1cc(NC(=O)c2cccc(NC(=O)/C=C/CN(C)C)c2)ccc1Nc1nccc(-c2cccnc2)n1
testTarget: EEF2K (human) (UniProt O00418)
residual activity (%): 95

molecule: NC1(c2ccc(-c3nc4ccn5c(=O)[nH]nc5c4cc3-c3ccccc3)cc2)CCC1
testTarget: EEF2K (human) (UniProt O00418)
residual activity (%): 104

molecule: Cc1ccc(-c2ccc3c(ccc4sc5c(c43)NC[C@@H](C)NC5=O)n2)cn1
testTarget: EEF2K (human) (UniProt O00418)
residual activity (%): 97

molecule: O=C(N[C@@H](COc1ccc2[nH]c(=O)[nH]c2c1)c1ccccc1)c1cccn(Cc2ccc(F)c(F)c2)c1=O
testTarget: EEF2K (human) (UniProt O00418)
residual activity (%): 103

molecule: Cc1ccc(Sc2cnc(Nc3cccc(Br)n3)s2)cc1C(=O)N1CCN(C(=O)CN)CC1
testTarget: EEF2K (human) (UniProt O00418)
residual activity (%): 96

molecule: NC(=O)c1ccc(-c2ccc(Oc3cncc4sc(-c5nn[nH]n5)cc34)cc2)cc1
testTarget: EEF2K (human) (UniProt O00418)
residual activity (%): 100

molecule: O=C(Nc1nc2cc(C(F)(F)F)cc(NC3CC3)n2n1)c1cccnc1
testTarget: EEF2K (human) (UniProt O00418)
residual activity (%): 84

molecule: CCCCCc1ccc(/C=C/[C@H](O)[C@@H](CO)NC)cc1
testTarget: EEF2K (human) (UniProt O00418)
residual activity (%): 76

molecule: O=C(NOCC(O)CO)c1ccc(F)c(F)c1Nc1ccc(I)cc1Cl (stereo not given)
testTarget: EEF2K (human) (UniProt O00418)
residual activity (%): 84

molecule: COc1cc(C(=O)N2CCOCC2)c(F)cc1Nc1ncc(C(F)(F)F)c(NC2CC2)n1
testTarget: EEF2K (human) (UniProt O00418)
residual activity (%): 103

molecule: O=C(Nc1ccccc1-c1cn2c(CN3CCNCC3)csc2n1)c1cnc2ccccc2n1
testTarget: EEF2K (human) (UniProt O00418)
residual activity (%): 106

molecule: Nc1cccc2c1CN(C1CCC(=O)NC1=O)C2=O (stereo not given)
testTarget: EEF2K (human) (UniProt O00418)
residual activity (%): 94

molecule: O=C(O)c1cc(N=Nc2ccc(S(=O)(=O)Nc3ccccn3)cc2)ccc1O
testTarget: EEF2K (human) (UniProt O00418)
residual activity (%): 95

molecule: NC(=O)c1cc(-c2ccnc(NC3CCCCC3)c2)nc(N2CCNCC2)c1
testTarget: EEF2K (human) (UniProt O00418)
residual activity (%): 111

molecule: NC(=O)c1c(NC(=O)C2CC2)sc2c1CCCC2
testTarget: EEF2K (human) (UniProt O00418)
residual activity (%): 97

molecule: COc1cc2ncn(-c3cc(OCc4ccccc4S(C)(=O)=O)c(C#N)s3)c2cc1OC
testTarget: EEF2K (human) (UniProt O00418)
residual activity (%): 105

###

molecular target: MAP4K5 (human) (UniProt Q9Y4K4); assay: radiometric filter-binding kinase assay; settings: compound 0.1 µM
Sequence (Q9Y4K4 whole entry, looked up): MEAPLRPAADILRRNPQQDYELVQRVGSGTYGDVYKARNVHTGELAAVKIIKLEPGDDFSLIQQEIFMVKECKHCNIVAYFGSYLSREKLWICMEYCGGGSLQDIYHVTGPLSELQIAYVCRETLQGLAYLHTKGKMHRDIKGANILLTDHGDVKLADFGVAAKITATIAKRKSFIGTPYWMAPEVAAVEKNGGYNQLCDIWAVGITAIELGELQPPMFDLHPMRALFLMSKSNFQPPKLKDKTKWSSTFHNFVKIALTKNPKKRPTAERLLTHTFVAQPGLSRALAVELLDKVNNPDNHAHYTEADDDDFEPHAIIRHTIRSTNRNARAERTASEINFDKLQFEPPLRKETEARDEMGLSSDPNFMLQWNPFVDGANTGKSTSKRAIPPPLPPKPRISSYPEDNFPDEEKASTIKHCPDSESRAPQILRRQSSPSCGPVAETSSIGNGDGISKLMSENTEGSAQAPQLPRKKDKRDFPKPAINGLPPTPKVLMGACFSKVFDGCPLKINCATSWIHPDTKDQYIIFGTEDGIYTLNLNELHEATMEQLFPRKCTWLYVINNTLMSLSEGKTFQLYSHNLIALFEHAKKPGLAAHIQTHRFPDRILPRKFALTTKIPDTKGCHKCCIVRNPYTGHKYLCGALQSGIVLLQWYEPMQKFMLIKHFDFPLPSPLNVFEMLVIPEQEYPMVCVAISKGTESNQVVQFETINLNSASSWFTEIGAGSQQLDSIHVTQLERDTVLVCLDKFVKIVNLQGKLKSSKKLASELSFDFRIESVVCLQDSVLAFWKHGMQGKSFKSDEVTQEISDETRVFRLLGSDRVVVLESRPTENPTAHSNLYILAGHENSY
Below, each of the compounds is paired with its reported residual activity value.

compound: CC1=C(CO)C(=O)O[C@@H]([C@@H](C)[C@H]2CC[C@H]3[C@@H]4C[C@H]5O[C@]56[C@@H](O)C=CC(=O)[C@]6(C)C4CC[C@]23C)C1 (stereo not given in full)
residual activity [%]: 106
--
compound: CN1CCN(CCOc2cc(OC3CCOCC3)c3c(Nc4c(Cl)ccc5c4OCO5)ncnc3c2)CC1
residual activity [%]: 70
--
compound: Cc1ccc(-c2ccc3c(ccc4sc5c(c43)NC[C@@H](C)NC5=O)n2)cn1
residual activity [%]: 111
--
compound: CNC(=O)C1[C@H]2O[C@@](C)([C@@H]1N)n1c3ccccc3c3c4c(c5c6ccccc6n2c5c31)C(=O)NC4 (stereo not given in full)
residual activity [%]: 7
--
compound: CCn1c(-c2nonc2N)nc2cncc(CNC3CCNCC3)c21
residual activity [%]: 107

###

system: OXSR1 (human), O95747 [T185E]; experiment: radiometric filter-binding kinase assay; conditions: compound 1.0 µM
Sequence (O95747 whole entry T185E, looked up): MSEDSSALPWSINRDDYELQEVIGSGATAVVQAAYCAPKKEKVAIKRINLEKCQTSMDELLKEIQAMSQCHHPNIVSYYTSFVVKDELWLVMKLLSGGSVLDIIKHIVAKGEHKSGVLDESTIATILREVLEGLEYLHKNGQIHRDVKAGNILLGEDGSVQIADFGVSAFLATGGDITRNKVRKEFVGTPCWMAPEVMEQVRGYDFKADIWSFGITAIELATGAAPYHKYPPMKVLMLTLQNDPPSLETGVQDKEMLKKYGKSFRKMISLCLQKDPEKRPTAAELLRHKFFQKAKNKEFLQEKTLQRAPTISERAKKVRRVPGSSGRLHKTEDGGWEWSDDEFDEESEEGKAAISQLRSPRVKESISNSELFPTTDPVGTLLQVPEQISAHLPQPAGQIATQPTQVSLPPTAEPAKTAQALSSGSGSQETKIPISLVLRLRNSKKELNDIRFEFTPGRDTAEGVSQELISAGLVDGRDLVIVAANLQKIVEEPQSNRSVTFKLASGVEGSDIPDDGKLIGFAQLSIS

compound: Cc1nc(-c2ccc(OCC(C)C)c(C#N)c2)sc1C(=O)O
testTarget: OXSR1 (human), O95747 [T185E]
valueUnits: %
residual activity: 96
--
compound: CC(C)(C#N)c1ccc(N2C(=O)OCc3cnc4ccc(-c5cnc6ccccc6c5)cc4c32)cc1
testTarget: OXSR1 (human), O95747 [T185E]
valueUnits: %
residual activity: 102
--
compound: COc1cc(C(=O)N2CCOCC2)c(F)cc1Nc1ncc(C(F)(F)F)c(NC2CC2)n1
testTarget: OXSR1 (human), O95747 [T185E]
valueUnits: %
residual activity: 95
--
compound: CCNc1nc(Nc2cc(F)c(C(=O)N3CCOCC3)cc2OC)ncc1C(F)(F)F
testTarget: OXSR1 (human), O95747 [T185E]
valueUnits: %
residual activity: 99
--
compound: COc1ccc(N(C(=O)Nc2c(C)cccc2C)c2cc(Nc3ccc(N4CCN(C)CC4)cc3)ncn2)c(OC)c1
testTarget: OXSR1 (human), O95747 [T185E]
valueUnits: %
residual activity: 57
--
compound: CNC(=O)C1[C@H]2O[C@@](C)([C@@H]1N)n1c3ccccc3c3c4c(c5c6ccccc6n2c5c31)C(=O)NC4 (some centres undefined)
testTarget: OXSR1 (human), O95747 [T185E]
valueUnits: %
residual activity: 7
--
compound: C=C1C(=O)OC2C1CC/C(C)=C/CCC1(C)OC21 (centres undefined)
testTarget: OXSR1 (human), O95747 [T185E]
valueUnits: %
residual activity: 115
--
compound: CN(C)C/C=C/C(=O)Nc1cccc(C(=O)Nc2ccc(Nc3nccc(-c4cccnc4)n3)cc2)c1
testTarget: OXSR1 (human), O95747 [T185E]
valueUnits: %
residual activity: 105
--
compound: O=C(NCCCNc1nc(Nc2cccc(CN3CCOCC3)c2)ncc1C1CC1)C1CCC1
testTarget: OXSR1 (human), O95747 [T185E]
valueUnits: %
residual activity: 94
